Answer each item with its documented pIC50.
# target.of.assay: Broad substrate specificity ATP-binding cassette transporter ABCG2 (Homo sapiens, UniProt Q9UNQ0)
# Sequence (Q9UNQ0 whole entry): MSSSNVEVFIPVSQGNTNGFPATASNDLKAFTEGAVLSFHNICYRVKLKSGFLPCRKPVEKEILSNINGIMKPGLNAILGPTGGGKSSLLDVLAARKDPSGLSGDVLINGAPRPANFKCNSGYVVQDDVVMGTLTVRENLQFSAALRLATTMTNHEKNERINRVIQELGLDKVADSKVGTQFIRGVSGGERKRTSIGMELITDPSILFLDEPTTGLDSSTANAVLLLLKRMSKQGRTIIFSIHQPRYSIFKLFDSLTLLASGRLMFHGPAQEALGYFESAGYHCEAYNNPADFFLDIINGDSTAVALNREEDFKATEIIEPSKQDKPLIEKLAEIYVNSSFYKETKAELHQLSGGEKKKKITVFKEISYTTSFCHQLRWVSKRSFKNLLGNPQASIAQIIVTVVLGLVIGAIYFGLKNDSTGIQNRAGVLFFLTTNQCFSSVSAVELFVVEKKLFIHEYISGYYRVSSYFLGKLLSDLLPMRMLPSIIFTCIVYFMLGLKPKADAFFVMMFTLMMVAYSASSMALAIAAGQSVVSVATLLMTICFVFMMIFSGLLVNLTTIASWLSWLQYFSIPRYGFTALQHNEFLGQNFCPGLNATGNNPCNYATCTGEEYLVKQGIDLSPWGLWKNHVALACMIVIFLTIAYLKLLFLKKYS
# assay.explanation: Inhibition of human BCRP expressed in MDCK2 cells assessed as pheophorbide A accumulation treated 30 mins before pheophorbide A addition measured up to 120 mins by flow cytometry
# Assay type: cell-based, MDCK-II
The read-out pIC50 is expressed as -log10 of concentration in moles per litre.

Q: What does the data say about its pIC50? Entry: COc1cc2nc(Nc3cccc(C#N)c3)nc(Nc3cccc(C#N)c3)c2cc1OC
A: 6.33

Q: What does the data say about its pIC50? Entry: COc1ccc(-c2nc(Nc3cccc(C(F)(F)F)c3)c3ccccc3n2)cc1OC
A: 6.62

Q: What does the data say about its pIC50? Entry: COc1cc2nc(Nc3cccc([N+](=O)[O-])c3)nc(Nc3cccc([N+](=O)[O-])c3)c2cc1OC
A: 6.49

Q: What does the data say about its pIC50? Entry: COc1ccc(Nc2nc(Nc3ccc(OC)c(OC)c3)c3cc(OC)c(OC)cc3n2)cc1OC
A: 5.82

Q: What does the data say about its pIC50? Entry: COc1cc2ncnc(Nc3cccc([N+](=O)[O-])c3)c2cc1OC
A: 6.04

Q: What does the data say about its pIC50? Entry: COc1ccc(-c2nc(Nc3ccc(O)cc3)c3ccccc3n2)cc1OC
A: 6.17

Q: What does the data say about its pIC50? Entry: COc1cc2ncnc(Nc3ccc([N+](=O)[O-])cc3)c2cc1OC
A: 5.61

Q: What does the data say about its pIC50? Entry: N#Cc1cccc(Nc2ncnc3ccccc23)c1
A: 5.69

Q: What does the data say about its pIC50? Entry: COc1cc2nc(Nc3cccc(C(F)(F)F)c3)nc(Nc3cccc(C(F)(F)F)c3)c2cc1OC
A: 6.21

Q: What does the data say about its pIC50? Entry: COc1ccc(Nc2ncnc3ccccc23)cc1OC
A: 5.47

Q: What does the data say about its pIC50? Entry: COc1cc2nc(Nc3cccc(Br)c3)nc(Nc3cccc(Br)c3)c2cc1OC
A: 6.07

Q: What does the data say about its pIC50? Entry: COc1cc2ncnc(Nc3cccc(C(F)(F)F)c3)c2cc1OC
A: 5.70

Q: What does the data say about its pIC50? Entry: O=[N+]([O-])c1cccc(Nc2ncnc3ccccc23)c1
A: 6.05

Q: What does the data say about its pIC50? Entry: COc1ccc(Nc2nc(-c3ccc(OC)c(OC)c3)nc3ccccc23)cc1OC
A: 6.21

Q: What does the data say about its pIC50? Entry: COc1cc2ncnc(Nc3cccc(Br)c3)c2cc1OC
A: 5.63

Q: What does the data say about its pIC50? Entry: FC(F)(F)c1cccc(Nc2ncnc3ccccc23)c1
A: 5.81

Q: What does the data say about its pIC50? Entry: COc1ccc(-c2nc(Nc3ccccc3O)c3ccccc3n2)cc1OC
A: 6.54

Q: What does the data say about its pIC50? Entry: COc1ccc(-c2nc(Nc3cccc(Br)c3)c3ccccc3n2)cc1OC
A: 6.40

Q: What does the data say about its pIC50? Entry: COc1ccc(Nc2ncnc3cc(OC)c(OC)cc23)cc1OC
A: 5.42

Q: What does the data say about its pIC50? Entry: Brc1cccc(Nc2ncnc3ccccc23)c1
A: 5.83

Q: What does the data say about its pIC50? Entry: COc1ccc(-c2nc(Nc3ccccc3)c3ccccc3n2)cc1OC
A: 5.39

Q: What does the data say about its pIC50? Entry: COc1cc2ncnc(Nc3ccccc3[N+](=O)[O-])c2cc1OC
A: 5.40

Q: What does the data say about its pIC50? Entry: COc1ccc(-c2nc(Nc3ccccc3[N+](=O)[O-])c3ccccc3n2)cc1OC
A: 5.81

Q: What does the data say about its pIC50? Entry: COc1cc2ncnc(Nc3cccc(C#N)c3)c2cc1OC
A: 6.03

Q: What does the data say about its pIC50? Entry: COc1ccc(-c2nc(Nc3cccc(O)c3)c3ccccc3n2)cc1OC
A: 6.96
